System: MDA-MB-435 melanoma
Experiment: NCI-60 one-dose screen, 48 h (100 = growth as untreated, 0 = no growth, -100 = all killed)
Details: 10 µM unless noted
Compounds without any hit were thinned out: in the full panel of roughly 83,000, 20% have a hit.
Definition: the class of an entry is the range in lowest (below 40%), middle (40% to below 50%), highest (50% or more) that contains its growth.

Past entries and their recorded results:
> print(dat)
                                   compound  labelclass
1  Cc1cn(-c2cc(C(=O)Nc3cccc(C#Cc4cccc5[nH]nc(N)c45)c3)cc(C(F)(F)F)c2)cn1      middle
2  COc1ccc(/C=C/c2n[nH]c3ccc(N4CCOC4=O)cc23)cc1      middle
3  C1=C2CNCC3=Cc4ccc5ccccc5c4OC23Oc2c1ccc1ccccc21      lowest
4  CNC(=O)c1c(NC(=O)c2ccc(C(C)C)cc2)sc2c(CN(C)C)c(O)ccc12     highest
5                 BrC(Br)(Br)c1cnc2ccccc2n1      lowest
6  COc1cc(-c2cc(=O)oc3cc(O)ccc23)c(OC)c2c1OCO2     highest
7  COc1ccc(-c2nc(N/N=C/c3cccc(O)c3)nc(N3CCOCC3)c2C#N)cc1     highest
8  Clc1ccc(C2CC(c3cccc(Nc4ccncc4)c3)=NN2c2ccccc2)cc1 (stereo not given)      lowest

// switching to the query compound
Bin this entry: FC(F)(F)c1cccc(Oc2ccc(Nc3ncnc4ccc(OCCCN5CCOCC5)cc34)cc2Cl)c1
middle

Values were extracted from PubChem BioAssay (NCI).
